Test system: HT-29 cells
protocol-details: MTS cell viability test on HT-29 cells
Type: cell-based, Human
condition-info: HT-29, 24 h incubation at 37° C., 0-200 μM
Method: Human lung alveolar carcinoma A549 cells, provided by Prof. L. Migliore, University of Pisa, were grown in Ham's F12 medium supplemented with 10% Fetal Bovine Serum (FBS), 1 mM Gln, and antibiotics. Human colorectal adenocarcinoma HT-29 cells, provided by Prof. […] 3.5×10^3 B6KPC3 and A549 cells and 7.5×10^3 HT-29 cells were seeded into 96-well plates. […] After 24 h, cell viability was evaluated through MTS Cell Proliferation Colorimetric Assay Kit (Novus Biologicals, Abingdon, UK). […]
quantity-kind: pIC50
Interpret pIC50 as the negative base-10 log of the concentration measured in mol/L.

// pIC50 value for NC1CCCCC1N.[Pt+2] (stereo not shown) [DACHPt] : 4.41
